Test: CREB reporter modulators under forskolin, primary screen, cell-based, PC12, CRE-LacZ reporter, forskolin-stimulated (AID 1146);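 also: PC12 cells with 6xCRE LacZ reporter stimulated by forskolin 10 µM; beta-galactosidase reporter signal reflecting CREB driven transcription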
Conditions: luminescence, 4.5 h, higher = more signal, called active from +8 up or from −8 down
Active and inactive are the calls of the source.
Catalogue of z-score values

Check out these entries, answers already filled in.
O=C1O[C@@H](c2ccccc2)[C@@H](c2ccccc2)N2[C@@H](c3ccccc3OCCO)[C@]3(C(=O)Nc4ccc(C#CCCO)cc43)[C@@H](C(=O)N3CCN(c4ncccn4)CC3)[C@H]12 2.99 (inactive)
O=C1O[C@@H](c2ccccc2)[C@@H](c2ccccc2)N2[C@@H](c3ccc(O)cc3)[C@]3(C(=O)Nc4ccc(C#CC5=CCCCC5)cc43)[C@@H](C(=O)N3CCN(c4ncccn4)CC3)[C@H]12 -0.286 (inactive)

# ---- query molecule ----
Returns the measured z-score for the input molecule. Input: CC(C)(C)OC(=O)CC[C@@]1(C(=O)O)N=C(c2ccc(OCCCO)cc2)O[C@@H]1c1ccccc1CN=[N+]=[N-]
-0.912 (inactive)

---

Molecular target: Calmodulin-1 (Homo sapiens) (UniProt P0DP23)
Assay: CALM1 binders on microarrays, EGTA buffer, profiling panel, biochemical, small-molecule microarray, Cy5-labelled CALM1 (AID 1111);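 also: labelled calmodulin applied in Tris saline Tween buffer holding calcium plus EGTA and DTT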
Conditions: Cy5-CALM1 binding fluorescence, higher = more signal
experimentalEndpoint: composite z-score

Check out these entries, answers already filled in.
compound	result
Cc1ccc(C(C)CC(O)C2C=CC3C(=O)N(c4ccccc4)C(=O)C3N2Nc2ccc(C(C)C)cc2)o1 (configuration not stated)	2.35
CC(C)CNC(=O)[C@@]1(c2ccc([N+](=O)[O-])cc2)CC(=O)N(C2CCCCC2)[C@@H]1c1ccc(CO)cc1I	0.779
C=CCOC(=O)[C@H]1[C@@H]2C(=O)O[C@@H](c3ccccc3)[C@@H](c3ccccc3)N2[C@@H](c2ccc(OCCOC(=O)[C@H]3C[C@H]4C(=O)N[C@@H](CCCC[N+](C)(C)C)C(=O)N4[C@H]3c3cccc(OCCO)c3)cc2)[C@]12C(=O)Nc1ccc(I)cc12	0.727

Returns the measured composite z-score for the input compound. Input: CC(C)C(CO)N1C(=O)[C@]2(C)C3C(=O)OCCC/C=C\[C@H]3OC23C=CCN(c2ccc(Cl)cc2)C(=O)[C@@H]13 (some centres not stated)
-0.224

Returns the measured composite z-score for the input compound. Input: Cc1c(NC(=O)/C(C#N)=C/C=C/c2ccc(N(C)C)cc2)c(=O)n(-c2ccccc2)n1C
0.824

Returns the measured composite z-score for the input compound. Input: COc1ccc([Si](C)(C)[C@@H]2[C@@H](CCO)O[C@]3(C(=O)N(Cc4cccc(N5C(=O)c6cccc7cccc5c67)c4)c4ccccc43)[C@H]2C)cc1
0.831

Returns the measured composite z-score for the input compound. Input: COc1ccc(NN2C(C(O)c3ccco3)C=CC3C(=O)N(C4CCCCC4)C(=O)C32)cc1 (configuration not stated)
0.9

---

Catalogue of composite z-score values
Assay: small-molecule binders of probe aNOTCH3, primary screen, biochemical, small-molecule microarray, 635/667 nm fluorescence (AID 1120);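 also: probe is a biotin-tagged antibody raised against NOTCH3 rather than NOTCH3 protein; score merges spot fluorescence near 667 nm with spot signal to noise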
Conditions: higher = more signal

Returns the measured composite z-score for the input molecule. Input: COc1ccccc1CN1C(=O)c2ccccc2[C@](Cc2ccccc2I)(C(=O)NC(C)C)[C@@H]1c1ccc(CO)cc1
0.101

Returns the measured composite z-score for the input molecule. Input: CN(C)CCCNC(=O)[C@@]1(C)c2ccccc2C(=O)N(Cc2cc(C(F)(F)F)cc(C(F)(F)F)c2)[C@H]1c1ccc(CO)cc1
-0.0984

Returns the measured composite z-score for the input molecule. Input: C=C(CCCC)C(=O)CC[C@@H](OC(=O)c1cccnc1)c1ccccc1OCCO
0.1
